- Measured on: PD-L1 His protein / PD-1 Fc protein (Homo sapiens)
- Sequence (Q9NZQ7 19-238 limits assumed): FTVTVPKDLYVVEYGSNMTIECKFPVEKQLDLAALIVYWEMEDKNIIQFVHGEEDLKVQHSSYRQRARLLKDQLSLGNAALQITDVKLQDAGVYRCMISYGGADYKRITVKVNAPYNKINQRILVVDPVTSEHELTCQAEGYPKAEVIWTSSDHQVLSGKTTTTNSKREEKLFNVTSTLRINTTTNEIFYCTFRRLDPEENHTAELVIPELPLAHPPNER
- Protocol summary: HTRF Assay (PD-1/PD-L1 interaction)
- Setup conditions: PD-L1 His 6 nM, PD-1 Fc 6 nM
Quick rule for you: IC50 under 5 nM gets rule met, anything else gets rule not met.

**Q:** Strictly below 5 nM in IC50? COc1nc(-c2cccc(-c3cccc(-c4cnc5sc(N6CCN(CCO)CC6)nn45)c3Cl)c2Cl)ccc1CNC[C@@H]1CCC(=O)N1 [Example 241]
**A:** rule not met

**Q:** Strictly below 5 nM in IC50? COc1nc(-c2cccc(-c3cccc(-c4ccn5c(=O)c(CNC[C@@H]6CCC(=O)N6)cnc5c4)c3Cl)c2Cl)ccc1CNCCO [Example 102]
**A:** rule not met

---

- Measured on: PD-L1 His protein / PD-1 Fc protein (Homo sapiens)
- Protocol summary: HTRF Assay (PD-1/PD-L1 interaction)
- Setup conditions: PD-L1 His 6 nM, PD-1 Fc 6 nM
Assay endpoint: pIC50
Just so you know, pIC50 here is -log10 of the concentration in molar units; reply with that number alone.

Worked examples, 5 molecules total:
**Q:** Reported pIC50, molecule `COc1nc(-c2cccc(-c3cccc(-c4cc(C)n5c(=O)c(CNCCO)cnc5c4)c3Cl)c2Cl)ccc1CNC[C@@H]1CCC(=O)N1` : ____
**A:** 7.66

**Q:** Reported pIC50, molecule `COc1nc(-c2cccc(-c3cccc(-c4ccn5c(=O)c(CNC[C@@H]6CCC(=O)N6)cnc5c4)c3C(F)(F)F)c2Cl)ccc1CNC[C@@H]1CCC(=O)N1` : ____
**A:** 7.42

**Q:** Reported pIC50, molecule `COc1nc(-c2cccc(-c3cccc(-c4cc5c(=O)n(C)c(CNC67CC(O)(C6)C7)nn5c4)c3Cl)c2Cl)ccc1CNC[C@@H]1CCC(=O)N1` : ____
**A:** 8.28

**Q:** Reported pIC50, molecule `COc1nc(-c2cccc(-c3cccc(-c4cc5c(=O)n(C)c(CNC[C@H](C)OC)nn5c4)c3Cl)c2Cl)ccc1CNC[C@@H]1CCC(=O)N1` : ____
**A:** 6.28

**Q:** Reported pIC50, molecule `COc1nc(-c2cccc(-c3cccc(-c4ccc5c(OC)c(CNC[C@H](C)O)cc(Cl)c5n4)c3Cl)c2Cl)ccc1CNC[C@@H]1CCC(=O)N1` : ____
**A:** 7.68

---
**Q:** Reported pIC50, molecule `COc1nc(-c2cccc(-c3cccc(-c4ccn5c(=O)c(CNC(C)(C)C(=O)O)cnc5c4)c3Cl)c2Cl)ccc1CNC[C@@H]1CCC(=O)N1` : ____
**A:** 10.00

**Q:** Reported pIC50, molecule `COc1nc(-c2cccc(-c3cccc(-c4ccc5nc(CNC[C@H](C)O)cc(=O)n5c4)c3Cl)c2Cl)ccc1CNC[C@@H]1CCC(=O)N1` : ____
**A:** 8.24

**Q:** Reported pIC50, molecule `COc1nc(-c2cccc(-c3cccc(-c4ccn5c(=O)c(CNCC6(O)CCC6)cnc5c4)c3Cl)c2Cl)ccc1CNC[C@@H]1CCC(=O)N1` : ____
**A:** 9.70

**Q:** Reported pIC50, molecule `Cc1c(-c2ccn3c(=O)c(CNC[C@@H]4CCC(=O)N4)cnc3c2)cccc1-c1cccc(-c2ccc(CNC[C@@H]3CCC(=O)N3)c(Cl)c2)c1Cl` : ____
**A:** 8.46

**Q:** Reported pIC50, molecule COc1nc(-c2cccc(-c3cccc(-c4ccc5c(n4)N(C)CCC5NC[C@@H]4CCC(=O)N4)c3Cl)c2Cl)ccc1CNC[C@@H]1CCC(=O)N1 (mixture of isomers) [Example 51] : ____
**A:** 8.54

**Q:** Reported pIC50, molecule COc1nc(-c2cccc(-c3cccc(-c4ccn5c(=O)c(CNCC(O)C6CC6)cnc5c4)c3Cl)c2Cl)ccc1CNC[C@@H]1CCC(=O)N1 (mixture of isomers) : ____
**A:** 7.19

**Q:** Reported pIC50, molecule `COc1nc(-c2cccc(-c3cccc(-c4ccn5c(=O)c(CN6CC[C@H](O)C6)cnc5c4)c3Cl)c2Cl)ccc1CN1CC[C@H](O)C1` : ____
**A:** 10.00
